Molecular target: CTSC in U937 cells (Homo sapiens (Human))
Sequence (P53634 25-463): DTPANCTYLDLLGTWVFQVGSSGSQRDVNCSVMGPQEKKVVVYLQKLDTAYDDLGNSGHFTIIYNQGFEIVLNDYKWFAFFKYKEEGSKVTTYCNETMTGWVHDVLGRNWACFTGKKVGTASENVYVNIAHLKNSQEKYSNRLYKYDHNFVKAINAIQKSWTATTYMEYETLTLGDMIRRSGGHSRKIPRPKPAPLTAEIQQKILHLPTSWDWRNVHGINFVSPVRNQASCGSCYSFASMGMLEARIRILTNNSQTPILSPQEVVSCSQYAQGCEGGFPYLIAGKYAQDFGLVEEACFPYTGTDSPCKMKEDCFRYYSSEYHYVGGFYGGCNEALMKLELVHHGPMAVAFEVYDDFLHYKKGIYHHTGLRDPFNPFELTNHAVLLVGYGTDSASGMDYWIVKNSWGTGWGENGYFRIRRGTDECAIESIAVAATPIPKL
Assay: Intracellular CTSC inhibition assay (in vitro), LLOMe-induced cell death in U937 cells
Assay type: cell-based
Details: 3 hours culture, CellTiter-Glo
METRIC_NAME: IC50 (nM)
The figure you give is taken to be in nM; do not add the unit.

{"STRUCTURE_SMILES_STRING": "CC(C)C1(c2noc(C3CCC(F)(F)CC3)n2)CCN(C(=O)[C@H]2NC3CCC2CC3)CC1", "IC50 (nM)": 60.9}
{"STRUCTURE_SMILES_STRING": "CC(C)C1(c2nc(C3CC(C)(C)C3)no2)CN(C(=O)[C@@H]2CC[C@@]3(CCO3)CN2)C1", "IC50 (nM)": 11.3}
{"STRUCTURE_SMILES_STRING": "O=C([C@@H]1C[C@@H](O)C2(CCC2)CN1)N1CCC(c2noc(C3CCC(F)(F)CC3)n2)(C2CC2)CC1", "IC50 (nM)": 0.38}

Pending compound:
Per the record, CN(C1(c2nc(C3CC(F)(F)C3)no2)CCN(C(=O)[C@@H]2C[C@@H](O)C3(CCC3)CN2)CC1)S(C)(=O)=O has IC50 of 129
